- assay notes: A qHTS for Small Molecule Inhibitors of Shiga Toxin; also: 0% is about no effect
- settings: Vero cells, Shiga toxin protein synthesis inhibition reporter; at 38.7 µM, active compounds read high
About 27,000 (9.3%) of roughly 290,000 compounds were called active. This is one part of a sample in which actives are shown more often than they occur.
readout type: inhibition (%)
Respond with the bare value in %.

Query :: Answer with reported inhibition of `COc1ccc(C(=O)NC2CCN(C(=S)NCCc3ccccc3)CC2)cc1`
Result :: 2.57

Query :: Answer with reported inhibition of `N#CC(=C1CCCC1)c1nc(-c2ccc(Cl)cc2)cs1`
Result :: 50.4

Query :: Answer with reported inhibition of `CC1CCN(S(=O)(=O)c2ccc3c(ccn3CC(=O)O)c2)CC1`
Result :: -22.5

Query :: Answer with reported inhibition of `c1ccc(-c2csc(N3CCc4ccccc4C3)n2)cc1`
Result :: 57.4

Query :: Answer with reported inhibition of `Cc1ccc(NC(=O)Nc2nnc(-c3ccncc3)s2)cc1`
Result :: -16.3

Query :: Answer with reported inhibition of S=C(NCCc1ccccc1)NCC1CCCO1 (stereo not given)
Result :: 0

Query :: Answer with reported inhibition of CC(C(=O)Nc1ccc(O)c(C(=O)O)c1)N1C(=O)/C(=C/c2cccs2)SC1=S (stereo not given)
Result :: 5.02

Query :: Answer with reported inhibition of `COc1ccc(/C=N/Nc2cc(N3CCOCC3)nc(C)n2)c(OC)c1`
Result :: 6.01

Query :: Answer with reported inhibition of `Cc1ccc(Nc2nc(Cl)c(C=O)s2)cc1`
Result :: 39.5

Query :: Answer with reported inhibition of `C=CCn1c(C23CC4CC(CC(C4)C2)C3)n[nH]c1=S`
Result :: -6.65

Query :: Answer with reported inhibition of `O=C(NCc1ccco1)C(=O)c1cn(CC(=O)N2CCCCCC2)c2ccccc12`
Result :: 27.2

Query :: Answer with reported inhibition of `CCOC(=O)c1cccc(NC(=O)CCc2nnc3ccc(N4CCOCC4)nn23)c1`
Result :: -1.45

Query :: Answer with reported inhibition of `Oc1ccccc1N1CCN(C(=S)NCc2ccccc2)CC1`
Result :: 76.8

Query :: Answer with reported inhibition of O=C(CCc1nnc(CCCCc2ccccc2)o1)NC(c1cccnc1)C(F)(F)F (stereo not given)
Result :: -12.1

Query :: Answer with reported inhibition of `COc1cc(OC)cc(C(=O)NCC(=O)OCc2csc(-c3ccccc3)n2)c1`
Result :: 21

Query :: Answer with reported inhibition of `N#C/C(=C1\CCCN1)c1nc(-c2ccccc2)cs1`
Result :: 76.5

Query :: Answer with reported inhibition of `Cc1ccccc1OCC(=O)Nc1nnc(S(=O)(=O)N2CCCC2)s1`
Result :: -10.5

Query :: Answer with reported inhibition of `COc1ccc(/C=C2\SC(=S)N(CCC(=O)Nc3cccc(C(=O)O)c3)C2=O)cc1OC`
Result :: 2.9

Query :: Answer with reported inhibition of `Cc1cccc([C@@H]2[C@@H]3C(=O)N(C)C(=O)[C@@H]3[C@@H]3C(=O)Nc4ccccc4C(=O)N23)c1`
Result :: -2.83

Query :: Answer with reported inhibition of `Cc1cccc(C(=O)NCCCN2CCCC2=O)c1`
Result :: -5.25

Query :: Answer with reported inhibition of `CN1CCN(C(=O)C(=O)c2cn(CC(=O)N3CCCC3)c3ccccc23)CC1`
Result :: -13

Query :: Answer with reported inhibition of `O=C(NCCCn1ccnc1)C(=O)c1cn(CC(=O)N2CCCCCC2)c2ccccc12`
Result :: -6.62

Query :: Answer with reported inhibition of COc1ccc(NC(=S)N2CCCC(CO)C2)c(OC)c1 (stereo not given)
Result :: -3.35

Query :: Answer with reported inhibition of `CCCCc1ccc(NC(=S)NCCCN2CCOCC2)cc1`
Result :: -8.23

Query :: Answer with reported inhibition of `COc1ccc(-c2nc3ccccc3n2CCC(C)C)cc1OC`
Result :: -2.89

Query :: Answer with reported inhibition of CCCC(C)c1nnc(NC(=O)C2CC(=O)N(c3ccc(OCC)cc3)C2)s1 (stereo not given)
Result :: -3.18

Query :: Answer with reported inhibition of `COc1cccc(NC(=O)C(=O)c2cn(CC(=O)N3CCOCC3)c3ccccc23)c1`
Result :: 92.3

Query :: Answer with reported inhibition of O=C(CC(c1ccccc1)c1ccccc1)NCC(O)c1ccc([N+](=O)[O-])cc1 (stereo not given)
Result :: -4.27

Query :: Answer with reported inhibition of `COc1cc(NC(=O)C2=CC(c3ccc(C)cc3)=NS(=O)(=O)N2C)cc(OC)c1OC`
Result :: 7.86

Query :: Answer with reported inhibition of OCCC1CN(Cc2cnc(-c3ccccc3)s2)CCN1CCc1ccccc1 (stereo not given)
Result :: -10.1

Query :: Answer with reported inhibition of O=C1C(=O)N(CCN2CCOCC2)C(c2cccc(Cl)c2)/C1=C(/O)c1ccc2c(c1)OCO2 (stereo not given)
Result :: -5.97

Query :: Answer with reported inhibition of `Oc1ccc(N2CCN(C(=S)NCc3ccccc3)CC2)cc1`
Result :: 17.4

Query :: Answer with reported inhibition of `COc1cccc(NC(=O)CS(=O)(=O)c2cn(CC(=O)N3CCOCC3)c3ccccc23)c1`
Result :: -10.3

Query :: Answer with reported inhibition of `CCCOc1ccc(CNC(=O)C2CCN(c3nn4c(=O)cc(C)nc4s3)CC2)cc1`
Result :: -3.64

Query :: Answer with reported inhibition of O=C(NCCc1c[nH]c2ccccc12)C(=O)NCC1CCCO1 (stereo not given)
Result :: -8.17

Query :: Answer with reported inhibition of `CCOC(=O)CNC(=O)CSc1ncccc1-c1nc2ccccc2[nH]1`
Result :: -7.03

Query :: Answer with reported inhibition of `O=C(NCCCN1CCCCCC1)c1ccc(N2CCCC2=O)cc1`
Result :: 0.987

Query :: Answer with reported inhibition of COCc1ccc(C(=O)NC2CC(C)(C)Cc3c2cnn3-c2ccc(C)cc2)o1 (stereo not given)
Result :: 21.9

Query :: Answer with reported inhibition of `S=C(NCCc1ccccc1)N1CCCCC1`
Result :: 66.4

Query :: Answer with reported inhibition of `COc1ccc(S(=O)(=O)N/N=C\c2ccc(OC)c(COc3ccc(C)cc3[N+](=O)[O-])c2)cc1`
Result :: -12.5
